Where these numbers come from: paper PMC10993414

System: AREc32 cells
Settings: human
result-type: Cytotoxicity Incucyte IC10 (µM)

• C=C(C)[C@H]1Cc2c(ccc3c2O[C@@H]2COc4cc(OC)c(OC)cc4[C@@H]2C3=O)O1 [Rotenone] = 0.212
• O=[N+]([O-])c1ccc(O)c([N+](=O)[O-])c1 [2,4-Dinitrophenol] = 281
• Oc1c(Cl)cc(Cl)c(Cl)c1Cc1c(O)c(Cl)cc(Cl)c1Cl [Hexachlorophene] = 5.46
• Oc1c(Cl)c(Cl)c(Cl)c(Cl)c1Cl [Pentachlorophenol] = 67.9
• CC(C)Oc1cccc(NC(=O)c2ccccc2C(F)(F)F)c1 [Flutolanil] = 106

* * *

Listed here are compounds together with their documented Cytotoxicity ImageExpress IC10.
System: AREc32 cells
Settings: human, 24 h
result-type: Cytotoxicity ImageExpress IC10

- O=C(Nc1ccccc1-c1ccc(Cl)cc1)c1cccnc1Cl: > 83.2 µM
- CC(C)(C)c1ccc(CSc2cnn(C(C)(C)C)c(=O)c2Cl)cc1: > 161 µM
- CON=C(C(=O)OC)c1ccccc1CON=C(C)c1cccc(C(F)(F)F)c1: > 123 µM
- Cc1ccccc1C(=O)Nc1cccc(OC(C)C)c1: 72.9 µM
- Cc1ccc(-c2c(Cl)nc(C#N)n2S(=O)(=O)N(C)C)cc1: > 54.1 µM
- CSC1=N[C@@](C)(c2ccccc2)C(=O)N1Nc1ccccc1: 125 µM
- CC1=C(C(=O)Nc2ccccc2)SCCO1: > 429 µM

* * *

Tested on: mitochondrial membrane potential (MMP) in AREc32 cells
Test: Disruption of mitochondrial membrane potential (m-MPI red/green ratio), MitoOxTox
Settings: logarithm of EC10; AREc32, 24 h exposure
The label depends only on MMP inhibition log(EC10 (M)): label 1 if it is at least -8 M, label 0 if it is smaller.

- O=[N+]([O-])c1ccc(O)c([N+](=O)[O-])c1: label 1
- CCOCCc1ccc(OCCN=c2[nH]cnc(CC)c2Cl)c(C)c1C: label 0
- CCCCCc1ccc(O)cc1: label 1
- C=C(C)[C@H]1Cc2c(ccc3c2O[C@@H]2COc4cc(OC)c(OC)cc4[C@@H]2C3=O)O1: label 0
- Cc1nn(C)c(Oc2ccccc2)c1C=NOCc1ccc(C(=O)OC(C)(C)C)cc1 [Fenpyroximate]: label 0
- COC(=O)N(OC)c1ccccc1COc1ccn(-c2ccc(Cl)cc2)n1: label 1
- CC1(C)CNC(=NN=C(/C=C/c2ccc(C(F)(F)F)cc2)/C=C/c2ccc(C(F)(F)F)cc2)NC1 [Hydramethylnon]: label 1
- Cc1nc(C(F)(F)F)c(C(=O)Nc2c(Br)cc(OC(F)(F)F)cc2Br)s1 [Thifluzamide]: label 1
- CCc1nn(C)c(C(=O)NCc2ccc(C(C)(C)C)cc2)c1Cl: label 0
- CCCCCC[C@H]1C(=O)O[C@H](C)[C@H](NC(=O)c2cccc(NC=O)c2O)C(=O)O[C@@H](C)[C@@H]1OC(=O)CC(C)C [Antimycin A]: label 0

* * *

Listed here are molecules together with their documented MMP inhibition log(EC10 (M)).
Tested on: mitochondrial membrane potential (MMP) in AREc32 cells
Assay: Disruption of mitochondrial membrane potential (m-MPI red/green ratio), MitoOxTox
Conditions: logarithm of EC10; AREc32, 24 h exposure
result-type: MMP inhibition log(EC10 (M))

• CC(C)Oc1cccc(NC(=O)c2ccccc2C(F)(F)F)c1 [Flutolanil] = -4.60
• CON=C(C(=O)OC)c1ccccc1CON=C(C)c1cccc(C(F)(F)F)c1 [Trifloxystrobin] = -5.39
• CO/C=C(/C(=O)OC)c1ccccc1COc1cccc(C(F)(F)F)n1 [Picoxystrobin] = -5.87
• N#CC(C#N)=NNc1ccc(OC(F)(F)F)cc1 = -7.11
• CO/C=C(/C(=O)OC)c1ccccc1Oc1cc(Oc2ccccc2C#N)ncn1 [Azoxystrobin] = -4.80
• N#Cc1cc(Br)c(O)c(Br)c1 [Bromoxynil] = -4.66
• CNC(=O)/C(=N/OC)c1ccccc1COc1cc(C)ccc1C [Dimoxystrobin] = -6.36
• Cc1ccc(-c2c(Cl)nc(C#N)n2S(=O)(=O)N(C)C)cc1 [Cyazofamid] = -4.44
• Cc1ccccc1C(=O)Nc1cccc(OC(C)C)c1 [Mepronil] = -4.51
